For each record, write down the corresponding IC50.
- studyTarget: recombinant N-terminal GST-tagged human Rho kinase 1 (ROCK1, amino acids 1-535) (Homo sapiens)
- Construct: ROCK1, amino acids 1-535; purchased Invitrogen Inc. PV-3691
- Sequence (Q13464 1-535): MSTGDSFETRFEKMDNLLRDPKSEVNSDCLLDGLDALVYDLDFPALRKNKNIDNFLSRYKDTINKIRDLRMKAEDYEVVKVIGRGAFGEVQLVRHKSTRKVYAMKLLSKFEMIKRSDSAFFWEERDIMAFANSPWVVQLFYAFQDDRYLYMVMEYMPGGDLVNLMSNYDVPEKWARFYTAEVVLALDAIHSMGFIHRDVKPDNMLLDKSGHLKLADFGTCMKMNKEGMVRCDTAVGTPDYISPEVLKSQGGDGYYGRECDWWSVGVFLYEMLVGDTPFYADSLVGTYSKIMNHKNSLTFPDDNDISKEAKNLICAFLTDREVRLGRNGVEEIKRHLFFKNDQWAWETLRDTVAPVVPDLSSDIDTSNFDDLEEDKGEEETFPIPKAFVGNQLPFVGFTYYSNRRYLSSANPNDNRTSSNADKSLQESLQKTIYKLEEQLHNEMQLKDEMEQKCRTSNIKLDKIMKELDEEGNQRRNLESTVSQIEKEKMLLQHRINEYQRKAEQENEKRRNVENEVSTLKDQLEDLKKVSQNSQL
- test: In vitro Rho kinase assay (luciferase-based ATP consumption), ROCK1
- Format: biochemical
- settings: recombinant GST-tagged human ROCK1, luciferase-based ATP consumption; read-out: ROCK1 IC50

// batch mode: one IC50 value per listed entry
1. Cc1c(-c2ccnc(N)n2)sc2ccc(Nc3cccc(Oc4ccccc4)c3)cc12 [Example 53]
2. Cc1c(-c2ccnc(N)n2)oc2ccc(Br)cc12 [Example 91]
3. Cc1cccc(C(=O)NCc2ccc3sc(-c4ccnc(N)n4)c(C)c3c2)c1 [Example 118]

### Response
1: < 5 µM; 2: < 5 µM; 3: > 5 µM
